Entries and their EC150 (compound concentration showing 150% relative to the control (100%)) values follow.
Biological target: Human AMPK α2β2γ1 (Homo sapiens, UniProt O43741+P54646)
Construct: The full length cDNAs of human AMPK β2 (NM_005399.3) and human AMPK α2 (NM_006252.3); The full length cDNAs of human AMPK β2 (NM_005399.3); the full length cDNA of human AMPK γ1 (NM_002733.3) had been inserted into pET28b(+); 6xHis (N); made in house; host or cells: Escherichia coli BL21 CodonPlus (DE3)-RTL (AMPK); BL21 Star (DE3) (CaMKKβ)
Sequence (P54646 whole entry): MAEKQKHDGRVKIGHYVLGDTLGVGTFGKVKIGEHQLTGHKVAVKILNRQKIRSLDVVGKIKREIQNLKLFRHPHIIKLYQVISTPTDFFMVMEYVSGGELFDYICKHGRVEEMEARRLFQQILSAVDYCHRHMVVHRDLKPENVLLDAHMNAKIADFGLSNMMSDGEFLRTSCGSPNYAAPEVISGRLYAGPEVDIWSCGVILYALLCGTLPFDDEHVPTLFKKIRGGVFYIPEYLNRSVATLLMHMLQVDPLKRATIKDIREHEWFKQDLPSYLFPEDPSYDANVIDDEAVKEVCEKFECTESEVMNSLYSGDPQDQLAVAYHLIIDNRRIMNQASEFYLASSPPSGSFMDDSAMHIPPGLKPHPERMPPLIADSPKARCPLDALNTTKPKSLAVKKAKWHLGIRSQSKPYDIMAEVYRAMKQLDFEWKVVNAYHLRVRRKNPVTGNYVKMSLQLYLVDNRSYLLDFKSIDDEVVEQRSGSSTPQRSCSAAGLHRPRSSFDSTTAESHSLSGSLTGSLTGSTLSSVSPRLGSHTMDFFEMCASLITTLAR
Sequence (O43741 whole entry): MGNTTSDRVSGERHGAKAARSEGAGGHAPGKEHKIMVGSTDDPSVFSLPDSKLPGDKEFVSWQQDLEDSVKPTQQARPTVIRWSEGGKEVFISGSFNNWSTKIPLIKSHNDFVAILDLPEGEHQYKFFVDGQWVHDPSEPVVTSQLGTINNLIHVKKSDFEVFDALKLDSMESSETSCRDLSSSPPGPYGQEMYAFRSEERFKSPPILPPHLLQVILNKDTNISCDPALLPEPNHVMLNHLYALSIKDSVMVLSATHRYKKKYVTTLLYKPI
Sequence (P54619 whole entry partner): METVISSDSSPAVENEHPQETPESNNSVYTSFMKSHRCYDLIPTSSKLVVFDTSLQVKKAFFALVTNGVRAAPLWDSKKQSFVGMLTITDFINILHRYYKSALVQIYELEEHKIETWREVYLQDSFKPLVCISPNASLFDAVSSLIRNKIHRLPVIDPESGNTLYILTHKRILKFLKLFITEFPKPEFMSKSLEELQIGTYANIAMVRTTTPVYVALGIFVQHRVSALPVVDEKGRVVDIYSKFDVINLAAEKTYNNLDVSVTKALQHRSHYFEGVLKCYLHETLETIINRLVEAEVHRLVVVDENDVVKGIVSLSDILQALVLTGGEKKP
Test: Test Example 2: evaluation of an activator for AMP-activated protein kinase (AMPK), human AMPK α2β2γ1 phosphorylated with CaMKK2, FL-Peptide 7 mobility shift
Type: biochemical
Conditions: human AMPK α2β2γ1, 0.2 mM ATP final, 25° C., 2 hours
Record the value in nM, omitting the unit from your answer.

Use the examples below as a reference point.
Compound | Val
O[C@@H]1CO[C@H]2[C@@H]1OC[C@H]2Oc1cc2nc(NC3CCc4cc(F)cc(F)c43)c(C(F)(F)F)cc2[nH]1 (stereo partly drawn) [Compound I-3-19] | 120
O[C@@H]1CO[C@H]2[C@@H]1OC[C@H]2Oc1cc2nc(-c3ccc(N4CCOCC4)cc3F)c(C(F)(F)F)cc2[nH]1 [Compound I-3-39] | 200
CC(C)(C(=O)O)[C@H]1CC[C@H](Oc2cc3nc(-c4c(F)cc(N5CCOCC5)cc4F)c(Cl)cc3[nH]2)CC1 [Compound I-1-16] | 810
COc1nc(N2CCCC2)ccc1-c1nc2cc(O[C@@H]3CO[C@H]4[C@@H]3OC[C@H]4O)[nH]c2cc1F [Compound I-3-27] | 12
O[C@@H]1CO[C@H]2[C@@H]1OC[C@H]2Oc1cc2nc(-c3ccc(C4CCCO4)cc3)c(F)cc2[nH]1 (stereo partly drawn) [Compound I-2-68] | 26

Query :: Look up and report measured EC150 (compound concentration showing 150% relative to the control (100%)) for this entry: O[C@@H]1CO[C@H]2[C@@H]1OC[C@H]2Oc1cc2nc(-c3ccc([C@H]4C[C@H](O)[C@H](O)CO4)cc3)c(F)cc2[nH]1 [Compound I-2-61-b]
Result :: 6.4

* * *

Biological target: Human AMPK α2β2γ1 (Homo sapiens, UniProt O43741+P54646)
Construct: The full length cDNAs of human AMPK β2 (NM_005399.3) and human AMPK α2 (NM_006252.3); The full length cDNAs of human AMPK β2 (NM_005399.3); the full length cDNA of human AMPK γ1 (NM_002733.3) had been inserted into pET28b(+); 6xHis (N); made in house; host or cells: Escherichia coli BL21 CodonPlus (DE3)-RTL (AMPK); BL21 Star (DE3) (CaMKKβ)
Assay: Test Example 2: evaluation of an activator for AMP-activated protein kinase (AMPK), human AMPK α2β2γ1 phosphorylated with CaMKK2, FL-Peptide 7 mobility shift
Format: biochemical
Details: human AMPK α2β2γ1, 0.2 mM ATP final, 25° C., 2 hours
Test readout: EC150 (compound concentration showing 150% relative to the control (100%)) (nM)
Provide the reading as a plain figure in nM.

Past entries and their recorded results:
Smiles input | Val
N#Cc1cc2[nH]c(O[C@@H]3CO[C@H]4[C@@H]3OC[C@H]4O)cc2nc1-c1ccc(N2CCOCC2)cc1 | 8.3
O[C@@H]1CO[C@H]2[C@@H]1OC[C@H]2Oc1cc2nc(-c3ccc(N4CCOCC4)cc3)c(F)cc2[nH]1 | 5.3

Query :: Report measured EC150 (compound concentration showing 150% relative to the control (100%)); entry is "O[C@@H]1CO[C@H]2[C@@H]1OC[C@H]2Oc1cc2nc(-c3ccc([C@@H]4C[C@@H](O)[C@@H](O)CO4)cc3)c(Cl)cc2[nH]1"
Result :: 6.4

* * *

Molecular target: Human AMPK α2β2γ1 (Homo sapiens, UniProt O43741+P54646)
Construct: The full length cDNAs of human AMPK β2 (NM_005399.3) and human AMPK α2 (NM_006252.3); The full length cDNAs of human AMPK β2 (NM_005399.3); the full length cDNA of human AMPK γ1 (NM_002733.3) had been inserted into pET28b(+); 6xHis (N); made in house; host or cells: Escherichia coli BL21 CodonPlus (DE3)-RTL (AMPK); BL21 Star (DE3) (CaMKKβ)
Assay: Test Example 2: evaluation of an activator for AMP-activated protein kinase (AMPK), human AMPK α2β2γ1 phosphorylated with CaMKK2, FL-Peptide 7 mobility shift
Format: biochemical
Details: human AMPK α2β2γ1, relative to control (100%); read-out: Emax (maximum rate of increase in activity within the measurement range)
Excerpt: The full length cDNAs of human AMPK β2 (NM_005399.3) and human AMPK α2 (NM_006252.3) were inserted into the MCS1 and MCS2 of the pETDuet-1 vector to prepare a human AMPK β2 and human AMPK α2 (6× His tag at the 5′ terminus) expressing plasmid. […] To detect phosphorylated fluorescent substrates, the reaction liquid was applied to a measuring device, LabChip EZ Reader II manufactured by Caliper Life Science, Inc., for detecting fluorescence by using differences in mobility due to differences in charge. […]
# Emax per record follows
The figure you give is taken to be in %; do not add the unit.

Molecule | Emax [%]
CCS(C)(=O)=Nc1ccc(-c2ccc(-c3nc4cc(O[C@@H]5CO[C@H]6[C@@H]5OC[C@H]6O)[nH]c4cc3F)cc2)cc1 (stereo partly drawn) [Compound I-4-43] | 453
CS(=O)(=O)c1ccc(-c2ccc(-c3nc4cc(O[C@@H]5CO[C@H]6[C@@H]5OC[C@H]6O)[nH]c4cc3F)cc2)nc1 [Compound I-4-41] | 441

Query :: Supply Emax value. Item: O[C@@H]1CO[C@H]2[C@@H]1OC[C@H]2Oc1cc2nc(-c3ccc(N4CCOCC4)cc3F)c(C(F)(F)F)cc2[nH]1 [Compound I-3-39]
Result :: 491

* * *

Biological target: Human AMPK α2β2γ1 (Homo sapiens, UniProt O43741+P54646)
Construct: The full length cDNAs of human AMPK β2 (NM_005399.3) and human AMPK α2 (NM_006252.3); The full length cDNAs of human AMPK β2 (NM_005399.3); the full length cDNA of human AMPK γ1 (NM_002733.3) had been inserted into pET28b(+); 6xHis (N); made in house; host or cells: Escherichia coli BL21 CodonPlus (DE3)-RTL (AMPK); BL21 Star (DE3) (CaMKKβ)
Assay: Test Example 2: evaluation of an activator for AMP-activated protein kinase (AMPK), human AMPK α2β2γ1 phosphorylated with CaMKK2, FL-Peptide 7 mobility shift
Type: biochemical
Conditions: human AMPK α2β2γ1, 0.2 mM ATP final, 25° C., 2 hours
Test readout: EC150 (compound concentration showing 150% relative to the control (100%)) (nM)
A number alone suffices; assume nM.

Molecule | Endpoint unit | Val
O[C@@H]1CO[C@H]2[C@@H]1OC[C@H]2Oc1cc2nc(-c3ccc(N4CCOCC4)cc3F)c(Cl)cc2[nH]1 [Compound I-1-25] | nM | 11
COc1cccc(-c2ccc(-c3nc4c(C#N)c(O[C@@H]5CO[C@H]6[C@@H]5OC[C@H]6O)[nH]c4cc3Cl)cc2)c1O [Compound I-1-38] | nM | 1.5
CS(C)(=O)=NC1CC=C(c2ccc(-c3nc4cc(O[C@@H]5CO[C@H]6[C@@H]5OC[C@H]6O)[nH]c4cc3F)cc2)CC1 (stereo partly drawn) [Compound I-4-17] | nM | 2.9
Cn1c(-c2nc3cc(O[C@@H]4CO[C@H]5[C@@H]4OC[C@H]5O)[nH]c3cc2F)cc2ccccc21 [Compound I-2-70] | nM | 38
COC(=O)NC1CC=C(c2ccc(-c3nc4cc(O[C@@H]5CO[C@H]6[C@@H]5OC[C@H]6O)[nH]c4cc3F)cc2)CC1 (stereo partly drawn) [Compound I-4-58] | nM | 4.3
O[C@@H]1CO[C@H]2[C@@H]1OC[C@H]2Oc1cc2nc(-c3ccc4scnc4c3)c(F)cc2[nH]1 [Compound I-3-14] | nM | 150
COc1ccc(-c2nc3cc(O[C@@H]4CO[C@H]5[C@@H]4OC[C@H]5O)[nH]c3cc2F)cc1 [Compound I-2-71] | nM | 89
O[C@@H]1CO[C@H]2[C@@H]1OC[C@H]2Oc1[nH]c2cc(F)c(-c3ccc(C4=CCOCC4)cc3)nc2c1Cl [Compound I-1-45] | nM | 13
NC(=O)Nc1ccc(-c2ccc(-c3nc4cc(O[C@@H]5CO[C@H]6[C@@H]5OC[C@H]6O)[nH]c4cc3F)cc2)cc1 [Compound I-4-44] | nM | 1.6
COc1cc(C2=CCOCC2)ccc1-c1nc2cc(O[C@@H]3CO[C@H]4[C@@H]3OC[C@H]4O)[nH]c2cc1F [Compound I-3-41] | nM | 31

Query :: Please give the documented EC150 (compound concentration showing 150% relative to the control (100%)) of O=C(CO)N1CC=C(c2ccc(-c3nc4cc(O[C@@H]5CO[C@H](CO)C5)[nH]c4cc3F)cc2)CC1 [Compound I-2-33]
Result :: 2.5
